Hello, the source for this data is patent US10344077, in case you need it.

target: SSA; test: AtheNA, Ab 12.5 ug/ml
Items are presented alongside their recorded Athena reading (relative luminescence units).
I only need the number, thanks.

In the examples that follow, each entry is paired with its recorded Athena reading (relative luminescence units).
CH241 (antibody, from a related filing, V domains shown) VH: QVQLVQSGAAVKKPGASVRVSCKASGYTFTSSHIHWVRQAPGQGPEWMGMIDPSVGRPTTAGKFQGRVTMTRDRYTSTAYMDLSSLRSEDTAVYYCARSVETTGSLLYFDYWGQGTLITVSS VL: EIVLTQSPATLSVSPGERATLSCRASQSVRSNIAWYQQKPGQAPRLLIHGASTRATGIPGRFSGSGSGPEFTLAISSVQSEDFAVYYCQQYNDWWTFGQGTKVEIK    14
CH239_4A/293i (antibody, from a related filing, V domains shown) VH: QVQLVQSGAEVRKPGASVTVSCKASGYTFNNFYVHWVRQAPGQGLECMGWIDPSVGRINYAQKFQGRVTMTRDRSTSTVYMGLSSLRSEDTAIYYCVRDVGTEGSLLHFDHWGQGTLVIVSA VL: EIVLTQSPATLSVSPGERATLSCRATQSVRSNVAWYQQKPGQAPRLLIYSASTRATGIPARFSGSGSGTEFTLTIASMQSEDFAVYYCLQYDDWWTFGQGTKVEIK    277
CH236_4A/293i (antibody, from a related filing, V domains shown) VH: QVQLVQSGAAVKRPGASVTISCRASGYTFTTYYIHWVRQAPGQRLELMGMIDPSRGRTDYAQKFQGRVTMSRDTSTSTLYMELRSLRPDDTALYYCVRNVGTEGSLLHYDYWGQGTLVTVSS VL: EIVLTQSPATLSVSPGERVTLSCRASQSVRNNLAWYRQKRGQAPRLLIYGASTRATGIPARFSGSGSGTEFTLTISSMQSEDFAVYYCQQYNNWWTFGQGTKVEIK    185

Record CH240_4A/293i (antibody, from a related filing, V domains shown) VH: QVQLVQSGTEVRKPGASVTISCKASGYTFNNFYVHWVRQAPGQGLECMGWIDPSVGRISYGQKFQGRVTMTRDRSTSTVYMGLSSLRSEDTAMYYCVRDVGTEGSLLHFDHWGQGTLVIVSA VL: EIVLTQSPATLSVSPGERATLSCRATQSVRSNLAWYQQKRGQAPRLLIYSASTRATGIPARFSGSGSGTEFTLTISSVQSEDFAVYYCLQYNNWWTFGQGTKVEIK , field Athena reading (relative luminescence units): 14

Consider CH235_4A (antibody, from a related filing, V domains shown) VH: QVQLVQSGAEVKKPGASVTVSCQASGYTFTNYYVHWVRQAPGQGLQLMGWIDPSWGRTNYAQNFQGRITMTRDTSTSTVYMEMRSLRSEDTAVYYCARNVATEGSLLHYDYWGQGTLVTVSA VL: EIVLTQSPATLSVSPGERATLSCRASQSVRSNLAWYQQRPGQAPRLLIYGTSTRATGVPARFSGRGSGTEFTLAISSMQSEDFAVYLCLQYNNWWTFGQGTKVEIK . Its measured Athena reading (relative luminescence units) is 13
